Test: Inhibition of 5-lipoxygenase in human whole blood.
pIC50: −log10 of the molar value.
value-kind: pIC50

CCCCCCCCCCOc1cccc(C(O)c2ncc(C)[nH]2)c1 (stereo not drawn)	5.20
OC(c1cccc(OCc2ccc3ccccc3c2)c1)c1nccs1 (stereo not drawn)	5.29
Cc1cnc(C(O)c2cccc(OCc3ccc(-c4ccccc4)cc3)c2)[nH]1 (stereo not drawn)	5.15
